- Test Summary: Brain pharmacokinetic studies in rats
- Assay type: in vivo, Sprague-Dawley rats
- Applied Conditions: Sprague-Dawley, rat; systemic (plasma), rats, iv, 3 mg/kg, solution
# half-life per record follows
Readout Label: half-life (h)

COC(=O)c1cnc(NC(=O)C2CC2)cc1Nc1nn(C)c2ccc([C@H](OC)C(F)(F)F)c(OC)c12 [Example 45B]; 2.28
COC(=O)c1cnc(NC(=O)C2CC2)cc1Nc1cnn2ccc([C@H](O)C(F)(F)F)c(OC)c12; 1.53
COC(=O)c1cnc(NC(=O)C2CC2)cc1Nc1cnn2ccc([C@H](OC)C(F)(F)F)c(OC)c12; 0.34
COC(=O)c1cnc(NC(=O)C2CC2)cc1Nc1nn(C)c2ccc([C@H](O)C(F)(F)F)c(OC)c12 [Example 48A]; 1.62
